B1: MGC27345 (parent)
chain: KYMPHLCQDSSGEVSCQCQLHPPR

Variants of: B1
Experiment: protein stability index of a GFP-peptide fusion (GPS, HEK-293T) (PSI 1-6); higher = more stable;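 further: lentivirally expressed fusions sorted by FACS into six bins by GFP to DsRed ratio, PSI derived from sequencing read proportions per bin multiplied by bin number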
Settings: c terminus: a fixed tail appended
quantityKind: protein stability index

variantDescription: K1S
testResult: 2.65
--
variantDescription: D9S
testResult: 1.82
--
variantDescription: Q8M
testResult: 2.83
--
variantDescription: P23N
testResult: 2.85
--
variantDescription: Y2W
testResult: 2.64
--
variantDescription: E13M
testResult: 1.89
--
variantDescription: Q19K
testResult: 2.07
--
variantDescription: R24Y
testResult: 3.87
--
variantDescription: L20Q
testResult: 2.34
--
variantDescription: C18R
testResult: 3
--
variantDescription: E13Q
testResult: 1.74
--
variantDescription: P4S
testResult: 1.71
--
variantDescription: L20T
testResult: 2.12
--
variantDescription: G12A
testResult: 2
--
variantDescription: H5S
testResult: 1.89
--
variantDescription: M3Q
testResult: 1.05
--
variantDescription: L20I
testResult: 2.79
--
variantDescription: S11R
testResult: 1.66
--
variantDescription: C7F
testResult: 2.21
--
variantDescription: P4A
testResult: 2.26
--
variantDescription: Q17F
testResult: 2.21
--
variantDescription: H5F
testResult: 1.34
--
variantDescription: G12P
testResult: 1.96
--
variantDescription: K1T
testResult: 1.9
--
variantDescription: Q17M
testResult: 3.13
--
variantDescription: S15V
testResult: 2.48
--
variantDescription: M3A
testResult: 2.24
--
variantDescription: P22M
testResult: 2.51
--
variantDescription: S11F
testResult: 1.58
--
variantDescription: D9K
testResult: 2.43
--
variantDescription: S15K
testResult: 2.8
--
variantDescription: K1I
testResult: 1.98
--
variantDescription: C16N
testResult: 3.1
--
variantDescription: S10W
testResult: 1.6
--
variantDescription: Q8A
testResult: 2.65
--
variantDescription: R24T
testResult: 3.99
--
variantDescription: Q17W
testResult: 2.6
--
variantDescription: P23Y
testResult: 2.07
--
variantDescription: C16S
testResult: 2.03
--
variantDescription: R24N
testResult: 4.28
--
variantDescription: P23A
testResult: 2.34
--
variantDescription: K1C
testResult: 3.03
--
variantDescription: G12K
testResult: 1.59
--
variantDescription: P23I
testResult: 2.24
--
variantDescription: D9T
testResult: 2.14
--
variantDescription: Q8V
testResult: 2.73
--
variantDescription: Q17S
testResult: 1.33
--
variantDescription: P22L
testResult: 2.73
--
variantDescription: R24S
testResult: 4.29
--
variantDescription: H21C
testResult: 2.65
--
variantDescription: P4R
testResult: 1.9
--
variantDescription: S10C
testResult: 2.73
--
variantDescription: V14I
testResult: 2.48
--
variantDescription: P22V
testResult: 2.17
--
variantDescription: P4I
testResult: 1.49
--
variantDescription: S15W
testResult: 1.02
--
variantDescription: C16R
testResult: 3.1
--
variantDescription: V14Q
testResult: 2.67
--
variantDescription: Q19G
testResult: 2.81
--
variantDescription: Q8R
testResult: 2.83
--
variantDescription: Q17G
testResult: 1.62
--
variantDescription: L20Y
testResult: 2.05
--
variantDescription: R24K
testResult: 3.26
--
variantDescription: Y2D
testResult: 2.4
--
variantDescription: G12Q
testResult: 2.8
--
variantDescription: H5I
testResult: 1.49
--
variantDescription: K1V
testResult: 2.43
--
variantDescription: D9C
testResult: 2.97
--
variantDescription: P22N
testResult: 3.16
--
variantDescription: S11W
testResult: 1.28
--
variantDescription: D9P
testResult: 1.42
--
variantDescription: H5A
testResult: 1.8
--
variantDescription: C18D
testResult: 3.65
--
variantDescription: P22H
testResult: 3.14
--
variantDescription: L20D
testResult: 2.73
--
variantDescription: L20C
testResult: 2.44
--
variantDescription: C16L
testResult: 2.94
--
variantDescription: Q19L
testResult: 2.12
--
variantDescription: S15P
testResult: 2.67
--
variantDescription: Q8N
testResult: 2.54
--
variantDescription: Y2F
testResult: 1.86
--
variantDescription: M3R
testResult: 2.46
--
variantDescription: P22Q
testResult: 2.64
--
variantDescription: H5W
testResult: 3.69
--
variantDescription: R24G
testResult: 4.32
--
variantDescription: C16F
testResult: 2.16
--
variantDescription: H21Y
testResult: 2.06
--
variantDescription: G12H
testResult: 2.69
--
variantDescription: V14R
testResult: 2.24
--
variantDescription: H5R
testResult: 2.57
--
variantDescription: K1M
testResult: 3.73
